All figures here come from ChEMBL document CHEMBL5512655.

- Test system: Staphylococcus aureus
- method summary: Antibacterial activity against Staphylococcus aureus assessed as inhibition of bacterial growth measured after 24 hrs incubation
- Type: functional
endpoint label: MIC (µg/mL)
Report the figure in µg/mL without appending any unit label.

Solved entries (count: 6):
CCn1cc(C(=O)O)c(=O)c2cc(F)c(N3CCNCC3)cc21	0.5
CCn1cc(C(=O)O)c(=O)c2cc(F)c(N3CCN(C(=O)/C(C#N)=C/c4cn(Cc5ccc(C)cc5)c5ccccc45)CC3)cc21	32
CCCCCCCCn1cc(C(=O)O)c(=O)c2cc(F)c(N3CCN(C(=O)/C(C#N)=C/c4cn(CC(=O)OCC)c5ccccc45)CC3)cc21	32
C=CCn1cc(/C=C(\C#N)C(=O)N2CCN(c3cc4c(cc3F)c(=O)c(C(=O)O)cn4CC)CC2)c2ccccc21	1
CCn1cc(C(=O)O)c(=O)c2cc(F)c(N3CCN(C(=O)/C(C#N)=C/c4c(C)[nH]c5ccccc45)CC3)cc21	1
CCCCCCn1cc(/C=C(\C#N)C(=O)N2CCN(c3cc4c(cc3F)c(=O)c(C(=O)O)cn4CC)CC2)c2ccccc21	0.5

Proceeding to the next compound to report its MIC.
Retrieve MIC measured for `CCn1cc(C(=O)O)c(=O)c2cc(F)c(N3CCN(C(=O)/C(C#N)=C/c4cn(Cc5cccc(Cl)c5)c5ccccc45)CC3)cc21` and print it.
32

====

- Test system: Pseudomonas aeruginosa
- method summary: Antibacterial activity against Pseudomonas aeruginosa assessed as inhibition of bacterial growth measured after 24 hrs incubation
- Type: functional
endpoint label: log10 MIC (log10 of the value in µg/mL)
# values: log10(MIC), units µg/mL

Study these solved cases before continuing.
CCCCCn1cc(/C=C(\C#N)C(=O)N2CCN(c3cc4c(cc3F)c(=O)c(C(=O)O)cn4CC)CC2)c2ccccc21	0.60
CCn1cc(C(=O)O)c(=O)c2cc(F)c(N3CCN(C(=O)/C(C#N)=C/c4c[nH]c5cccc(Cl)c45)CC3)cc21	1.51
CCCCCCn1cc(/C=C(\C#N)C(=O)N2CCN(c3cc4c(cc3F)c(=O)c(C(=O)O)cn4CC)CC2)c2ccccc21	1.20
CCn1cc(C(=O)O)c(=O)c2cc(F)c(N3CCN(C(=O)/C(C#N)=C/c4cn(CC5CCC5)c5ccccc45)CC3)cc21	-0.60
CCn1cc(C(=O)O)c(=O)c2cc(F)c(N3CCN(C(=O)/C(C#N)=C/c4cn(CCN5CCOCC5)c5ccccc45)CC3)cc21	0.00

Send back Pseudomonas aeruginosa log10 MIC of `CCn1cc(C(=O)O)c(=O)c2cc(F)c(N3CCN(C(=O)/C(C#N)=C/c4c[nH]c5cc(C)ccc45)CC3)cc21` only.
-0.60

Param request: log10 MIC | system Pseudomonas aeruginosa | item `CCCCn1cc(/C=C(\C#N)C(=O)N2CCN(c3cc4c(cc3F)c(=O)c(C(=O)O)cn4CC)CC2)c2ccccc21`
0.00

Tell me its log10 MIC on Pseudomonas aeruginosa: `CCn1cc(/C=C(\C#N)C(=O)N2CCN(c3cc4c(cc3F)c(=O)c(C(=O)O)cn4CC)CC2)c2ccccc21`
0.60

====

- System: Staphylococcus aureus
- method summary: Antibacterial activity against Staphylococcus aureus assessed as inhibition of bacterial growth measured after 24 hrs incubation
- Format: functional
The label Satisfied is reserved for MIC strictly under 4 µg/mL; Not satisfied covers values equal to or above it.

Solved entries:
CCn1cc(C(=O)O)c(=O)c2cc(F)c(N3CCN(C(=O)/C(C#N)=C/c4c[nH]c5cccc(Cl)c45)CC3)cc21	Satisfied
CCn1cc(C(=O)O)c(=O)c2cc(F)c(N3CCN(C(=O)/C(C#N)=C/c4cn(CCN5CCOCC5)c5ccccc45)CC3)cc21	Satisfied
CCCCn1cc(C(=O)O)c(=O)c2cc(F)c(N3CCN(C(=O)/C(C#N)=C/c4cn(CC(=O)OCC)c5ccccc45)CC3)cc21	Satisfied
CCn1cc(C(=O)O)c(=O)c2cc(F)c(N3CCN(C(=O)/C(C#N)=C/c4cn(CCCN5CCOCC5)c5ccccc45)CC3)cc21	Satisfied
CCn1cc(C(=O)O)c(=O)c2cc(F)c(N3CCN(C(=O)/C(C#N)=C/c4cn(CC5CCC5)c5ccccc45)CC3)cc21	Satisfied

Identify whether the compound `CCCCCCn1cc(C(=O)O)c(=O)c2cc(F)c(N3CCN(C(=O)/C(C#N)=C/c4cn(CC(=O)OCC)c5ccccc45)CC3)cc21` records MIC below 4 µg/mL.
Not satisfied

Problem: For the compound `CCn1cc(C(=O)O)c(=O)c2cc(F)c(N3CCN(C(=O)/C(C#N)=C/c4cn(CC(=O)O)c5ccccc45)CC3)cc21` , is MIC under 4 µg/mL?
Satisfied

Below 4 µg/mL on MIC? Entry `CCn1cc(C(=O)O)c(=O)c2cc(F)c(N3CCN(C(=O)/C(C#N)=C/c4cn(Cc5cccc(F)c5)c5ccccc45)CC3)cc21`
Not satisfied

Identify whether the compound `CCn1cc(C(=O)O)c(=O)c2cc(F)c(N3CCN(C(=O)/C(C#N)=C/c4cn(Cc5ccccc5Cl)c5ccccc45)CC3)cc21` records MIC below 4 µg/mL.
Not satisfied

Dear colleague, could you confirm whether MIC of `CCn1cc(C(=O)O)c(=O)c2cc(F)c(N3CCN(C(=O)/C(C#N)=C/c4cn(CCO)c5ccccc45)CC3)cc21` falls below 4 µg/mL? Thanks.
Satisfied

Consider the compound `CCOC(=O)Cn1cc(/C=C(\C#N)C(=O)N2CCN(c3cc4c(cc3F)c(=O)c(C(=O)O)cn4CC=C(C)C)CC2)c2ccccc21` . Is its MIC strictly less than 4 µg/mL?
Not satisfied

Find out if reported MIC for `CCOC(=O)Cn1cc(/C=C(\C#N)C(=O)N2CCN(c3cc4c(cc3F)c(=O)c(C(=O)O)cn4CC)CC2)c2ccccc21` is less than 4 µg/mL
Satisfied

Just wondering, is MIC of `CCn1cc(C(=O)O)c(=O)c2cc(F)c(N3CCN(C(=O)/C(C#N)=C/c4c[nH]c5ccc(Cl)cc45)CC3)cc21` below 4 µg/mL?
Satisfied

Is MIC of `CCn1cc(/C=C(\C#N)C(=O)N2CCN(c3cc4c(cc3F)c(=O)c(C(=O)O)cn4CC)CC2)c2ccccc21` strictly below 4 µg/mL?
Satisfied

Hi there! Is MIC for `CCn1cc(C(=O)O)c(=O)c2cc(F)c(N3CCN(C(=O)/C(C#N)=C/c4cn(CC5CCCC5)c5ccccc45)CC3)cc21` below 4 µg/mL, do you know?
Not satisfied

Lab note: confirm whether the reported MIC for this compound is below 4 µg/mL, equality not counting. compound: `CCn1cc(C(=O)O)c(=O)c2cc(F)c(N3CCN(C(=O)/C(C#N)=C/c4cn(CC5CCCCC5)c5ccccc45)CC3)cc21`
Not satisfied

In the record for `CCn1cc(C(=O)O)c(=O)c2cc(F)c(N3CCN(C(=O)/C(C#N)=C/c4cn(Cc5ccc(Cl)c(Cl)c5)c5ccccc45)CC3)cc21` , is MIC less than 4 µg/mL?
Not satisfied

Item `CCn1cc(C(=O)O)c(=O)c2cc(F)c(N3CCN(C(=O)/C(C#N)=C/c4cn(CC=C(C)C)c5ccccc45)CC3)cc21` : MIC beneath 4 µg/mL, strictly?
Satisfied

Please check: MIC for `CCn1cc(C(=O)O)c(=O)c2cc(F)c(N3CCN(C(=O)/C(C#N)=C/c4c[nH]c5cc(F)ccc45)CC3)cc21` , strictly under 4 µg/mL or not?
Satisfied
